method_notes: chemical genetic growth profiling, strain panel (AID 1159580);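 note: tested at 20 µM; growth read once vehicle control cultures reached saturation at 30 °C; 1 = growth at the plate median or of vehicle wells; lower values mean less growth of the strain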
run_parameters: S. cerevisiae deletion strains, growth OD, locus YLR102C, strain apc9, hits give low values
In all, about 5,500 compounds went through this assay and about 2,000 (36%) were called active. Another 18% or so got no clear call; they are omitted. This is one part of the list.
result_type: normalized growth
Please respond with just the number, no unit label.

Task: # return recorded normalized growth for input `COc1c(O)cc(O)cc1O`
Result: 0.987

Task: # return recorded normalized growth for input `COc1ccc2c(c1)[nH]c1c(C)nccc12`
Result: 0.981

Task: # return recorded normalized growth for input COC(=O)C[C@H]1C(C)(C)C(OC(C)=O)[C@]2(O)C=C3C4CC(=O)O[C@@H](c5ccoc5)[C@]4(C)CCC3[C@@]1(C)C2=O (some centres not stated)
Result: 1.01

Task: # return recorded normalized growth for input `CCCCC(=O)N(Cc1ccc(-c2ccccc2-c2nn[nH]n2)cc1)[C@H](C(=O)O)C(C)C`
Result: 0.975

Task: # return recorded normalized growth for input CC(C(=O)O)c1ccc(N2Cc3ccccc3C2=O)cc1 (configuration not stated)
Result: 0.992

Task: # return recorded normalized growth for input `COc1cc(O)c(C)c(O)c1`
Result: 1.01
